- System: SK-N-SH
- TEST DESCRIPTION: Antiproliferative activity against human SK-N-SH cells assessed as inhibition of cell growth incubated for 1 hrs by CellTiter Glo assay
- Format: functional, cell-based
MEASUREMENT LABEL: IC50 (nM)
Numeric answer only, unit nM assumed.

[ask] I would be grateful if you could share the reported IC50 for CCC(=C/[C@H](C)C/C=C/C(C)=C/[C@@H](C)C(=O)[C@@H](C)[C@H](O)[C@@H](C)C/C(C)=C/C(=O)O)/C=C/[C@@H]1OC(=O)C=C[C@@H]1C [LEPTOMYCIN B] .
[reply] 0.3

* * *

- TEST TARGET: Exportin-1 (Homo sapiens)
- Sequence (O14980 whole entry): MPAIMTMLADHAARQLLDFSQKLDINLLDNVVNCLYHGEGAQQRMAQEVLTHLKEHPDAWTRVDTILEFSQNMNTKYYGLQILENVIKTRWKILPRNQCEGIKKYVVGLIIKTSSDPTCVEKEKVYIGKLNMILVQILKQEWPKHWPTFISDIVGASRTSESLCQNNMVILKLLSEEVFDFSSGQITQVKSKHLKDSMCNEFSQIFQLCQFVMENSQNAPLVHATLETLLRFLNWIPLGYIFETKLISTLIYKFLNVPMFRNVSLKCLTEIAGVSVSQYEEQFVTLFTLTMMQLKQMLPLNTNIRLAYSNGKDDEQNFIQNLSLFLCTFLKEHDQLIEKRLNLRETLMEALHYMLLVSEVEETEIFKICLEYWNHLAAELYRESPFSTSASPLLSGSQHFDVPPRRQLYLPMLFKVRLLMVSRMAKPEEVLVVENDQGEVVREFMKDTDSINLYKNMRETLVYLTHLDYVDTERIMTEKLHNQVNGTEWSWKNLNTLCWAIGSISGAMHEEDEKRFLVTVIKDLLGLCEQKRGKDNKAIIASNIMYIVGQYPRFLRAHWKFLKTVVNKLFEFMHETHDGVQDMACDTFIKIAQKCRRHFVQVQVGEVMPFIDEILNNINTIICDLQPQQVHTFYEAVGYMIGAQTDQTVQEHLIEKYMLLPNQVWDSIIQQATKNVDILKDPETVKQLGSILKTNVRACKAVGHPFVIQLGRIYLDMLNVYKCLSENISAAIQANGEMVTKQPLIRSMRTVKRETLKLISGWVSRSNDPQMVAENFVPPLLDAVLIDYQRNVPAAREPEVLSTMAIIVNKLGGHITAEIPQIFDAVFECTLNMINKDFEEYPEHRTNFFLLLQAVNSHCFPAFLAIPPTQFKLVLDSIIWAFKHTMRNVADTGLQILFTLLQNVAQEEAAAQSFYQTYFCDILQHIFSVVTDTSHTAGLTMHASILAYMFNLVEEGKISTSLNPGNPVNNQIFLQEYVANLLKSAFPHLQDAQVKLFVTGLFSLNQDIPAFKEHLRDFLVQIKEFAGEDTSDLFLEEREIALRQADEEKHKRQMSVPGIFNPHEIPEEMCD
- TEST DESCRIPTION: Inhibition of CRM1 (unknown origin) binding to GST-tagged NES PKI at 100 uM incubated for 1.5 hrs by Coomassie brilliant blue staining based pull-down assay
The source made the active and inactive calls. The rule behind the calls is not given here.
Form entry, call: pick from 1.0 (active), 0.0 (inactive)

COC(=O)c1ccc(N2CCN(c3cc(C)ccc3C)CC2)c(NC(=O)c2ccc(Cl)cc2)c1
0.0
COC(=O)c1ccc(N2CCN(c3cc(C(F)(F)F)ccc3C)CC2)c(NC(=O)c2ccc(Cl)cc2)c1
0.0
COC(=O)c1ccc(N2CCN(c3cc(Cl)ccc3OC)CC2)c(NC(=O)c2ccc(Cl)cc2)c1
0.0

Moving on to the next compound.
[ask] Any idea what this test logged for COC(=O)c1ccc(N2CCN(c3cc(C(F)(F)F)ccc3C(F)(F)F)CC2)c(NC(=O)c2ccc(Br)cc2)c1 ?
[reply] 0.0
